- tested_system: Human adrenergic α2A receptor (Homo sapiens, UniProt P08913)
- Sequence (P08913 1-465): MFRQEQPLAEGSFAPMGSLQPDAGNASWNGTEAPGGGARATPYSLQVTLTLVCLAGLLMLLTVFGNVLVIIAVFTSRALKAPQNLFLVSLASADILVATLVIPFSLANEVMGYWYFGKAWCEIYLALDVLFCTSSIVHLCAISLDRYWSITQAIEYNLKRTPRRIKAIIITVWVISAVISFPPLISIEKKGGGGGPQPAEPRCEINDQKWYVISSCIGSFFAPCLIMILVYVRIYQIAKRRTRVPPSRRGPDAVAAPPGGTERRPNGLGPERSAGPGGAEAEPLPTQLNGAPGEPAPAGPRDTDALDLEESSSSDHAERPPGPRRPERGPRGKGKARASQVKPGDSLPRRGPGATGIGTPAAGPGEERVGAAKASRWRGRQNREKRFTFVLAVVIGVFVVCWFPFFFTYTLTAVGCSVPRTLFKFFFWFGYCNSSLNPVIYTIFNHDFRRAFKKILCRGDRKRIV
- experimental_protocol: Radioligand binding, adrenergic α2A (Protocol Group B)
- Design: purchased Milipore (Millipore)
- condition: 0.3 μM compound; Protocol Group B; read-out: Percentage inhibition of ligand binding, Adrenergic α2A (0.3 μM)
endpoint_label: inhibition at 0.3 µM (%)

Some entries whose results are on file:
compound: Cc1ccc2c(c1)c1c(n2CC(O)c2ccc(C(=O)N(C)C)nc2)CCN(C)C1 (stereo not shown) [compound 54]
endpoint_unit: %
inhibition at 0.3 µM: -3
//
compound: Cc1ccc2c(c1)c1c(n2CC(C)(O)c2cnccc2F)CCN(C)C1 (stereo not shown) [compound 40]
endpoint_unit: %
inhibition at 0.3 µM: 19

I. Cc1ccc2c(c1)c1c(n2CC(O)c2cccnc2)CC2CCCN2C1 (single isomer, unassigned) [27a]
II. Cc1cc(F)cc2c3c(n(CC(C)(O)c4cccnc4)c12)CC1CCCN1C3 (single isomer, unassigned) [76d]
III. CC(O)(Cn1c2c(c3cc(C(F)(F)F)ccc31)CN1CCCC1C2)c1cccnc1 (single isomer, unassigned) [85a]
IV. CC(O)(Cn1c2c(c3cc(F)ccc31)C1CCCN1CC2)c1ccncc1 (single isomer, unassigned) [31a]
V. CC(O)(Cn1c2c(c3cc(Cl)cc(F)c31)C1CCCN1CC2)c1cccnc1 (single isomer, unassigned) [53a]
Give the ascending ranking of the items by reported inhibition at 0.3 µM. # format: label list in the order the request specifies III, I, II, IV, V
(III: -4%, I: 20%, II: 30%, IV: 48%, V: 74%)

----------
- tested_system: Human adrenergic α2A receptor (Homo sapiens, UniProt P08913)
- Sequence (P08913 1-465): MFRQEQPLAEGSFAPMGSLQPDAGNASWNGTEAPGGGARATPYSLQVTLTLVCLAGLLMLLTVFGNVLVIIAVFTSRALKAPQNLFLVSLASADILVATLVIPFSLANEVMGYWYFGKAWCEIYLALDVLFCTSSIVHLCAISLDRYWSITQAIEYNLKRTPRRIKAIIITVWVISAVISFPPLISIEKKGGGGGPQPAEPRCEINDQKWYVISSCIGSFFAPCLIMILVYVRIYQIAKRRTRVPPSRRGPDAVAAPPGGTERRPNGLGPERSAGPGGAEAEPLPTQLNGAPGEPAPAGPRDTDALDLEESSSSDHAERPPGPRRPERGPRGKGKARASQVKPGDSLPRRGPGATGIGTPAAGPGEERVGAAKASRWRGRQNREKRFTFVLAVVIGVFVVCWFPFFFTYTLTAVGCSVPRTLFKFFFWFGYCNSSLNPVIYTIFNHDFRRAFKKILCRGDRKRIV
- experimental_protocol: Radioligand binding, adrenergic α2A (Protocol Group B)
- Set-up: purchased Milipore (Millipore)
- condition: 0.1 μM compound; Protocol Group B; 0.1 µM
endpoint_label: Percentage inhibition of ligand binding, Adrenergic α2A (0.1 μM) (%)

molecule: Cc1ccc2c(c1)c1c(n2CC(C)(O)c2cccnc2)CCN(C)C1CO (single isomer, unassigned) [16a]
endpoint_unit: %
value_observed: 8
--
molecule: Cc1ccc2c(c1)c1c(n2CC(O)c2cccnc2)CC2CCCN2C1 (single isomer, unassigned) [27b]
endpoint_unit: %
value_observed: 10
--
molecule: OC(Cn1c2c(c3cc(Cl)cc(F)c31)C1CCCN1CC2)c1ccncc1 (single isomer, unassigned) [135c]
endpoint_unit: %
value_observed: 12
--
molecule: Cc1cc(F)c2c(c1)c1c(n2CC(C)(O)c2cccnc2)CCN2CCCC12 (stereo not shown) [Compound No. 79a]
endpoint_unit: %
value_observed: 81
--
molecule: Cc1ccc2c(c1)c1c(n2CC(C)(O)c2ccc(F)cc2)CC2CCC1N2C (single isomer, unassigned) [102d]
endpoint_unit: %
value_observed: −8

I. OC(Cn1c2c(c3cc(Cl)cc(F)c31)C1CCCN1CC2)c1ccncc1 (single isomer, unassigned) [135a]
II. Cc1ccc2c(c1)c1c(n2CC(C)(O)c2ccc(F)cc2)CN2CCC1C2 (single isomer, unassigned) [134b]
Given the listed items, does I or II have the lesser reported Percentage inhibition of ligand binding, Adrenergic α2A (0.1 μM)? When you have decided, please share the label of that item. II
